# TARGET_OR_SYSTEM: Cin5 (UniProt P40917)
# Sequence: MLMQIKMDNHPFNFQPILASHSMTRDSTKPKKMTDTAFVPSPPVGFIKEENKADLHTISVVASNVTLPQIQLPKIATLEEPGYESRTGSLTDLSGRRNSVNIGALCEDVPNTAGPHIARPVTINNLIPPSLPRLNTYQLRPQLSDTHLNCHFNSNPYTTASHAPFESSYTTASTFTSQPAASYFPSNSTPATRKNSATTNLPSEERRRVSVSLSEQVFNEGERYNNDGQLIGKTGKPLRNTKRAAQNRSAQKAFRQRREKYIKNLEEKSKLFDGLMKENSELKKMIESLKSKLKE
# ASSAY_PROTOCOL: PBM E-score (8-mer binding enrichment) (E-score (-0.5 to 0.5)); higher = stronger / more preferred TF binding
# CONDITION_NOTES: protein concentration: 100 nM; construct: GST-full length
In all, about 33,000 sequences were measured (“E-score (-0.5 to 0.5)”: median about -0.0059, highest 2% from about 0.26 on). The sample holds the highest values, similar sequences and a random draw of the others, so the mix is not that of the screen.
Entry flag: fulfilled if PBM E-score reaches 0.07; not fulfilled if it does not.

Some solved cases for reference:
>  <RESIDUE_SEQUENCE>
CGGGATTC

>  <CLASS_ASSIGNMENT>
not fulfilled

$$$$
>  <RESIDUE_SEQUENCE>
ATTGCTTA

>  <CLASS_ASSIGNMENT>
fulfilled

$$$$
>  <RESIDUE_SEQUENCE>
ATGGTAGG

>  <CLASS_ASSIGNMENT>
not fulfilled

$$$$

stdin: PBM E-score >= 0.07 for `ATCGATTA` ?
stdout: fulfilled

stdin: Entry `CAGACGAA` : is its PBM E-score no less than 0.07?
stdout: fulfilled

stdin: Check if PBM E-score >= 0.07 (inclusive). Item: `CATAATGG`
stdout: fulfilled

stdin: # bool: PBM E-score of `CTAGCTTA` >= 0.07
stdout: fulfilled

stdin: Would you say `AAGGTATA` shows PBM E-score at minimum 0.07?
stdout: not fulfilled

stdin: I'd appreciate it if you could say whether `AATAATCG` has PBM E-score at least equal to 0.07.
stdout: fulfilled

stdin: I'd appreciate it if you could say whether `ATCGACAT` has PBM E-score at least equal to 0.07.
stdout: fulfilled

stdin: Is PBM E-score at least 0.07? Consider `GTAGCTTA`
stdout: fulfilled

Data credit: the supplement of paper PMC3334620
